Each entry below carries its reported IC50.
Test system: Pseudomonas aeruginosa PA14
Test method notes: Static peg assay for prevention of biofilm formation (Calgary device, crystal violet)
Type: cell-based
Measurement conditions: Pseudomonas aeruginosa, PA14, 24 h, read-out: (2) IC50 (biofilm inhibition)
Give the figure together with its unit, number first.

// below: answered molecules
CCCCCCCC[n+]1c(-c2ccc(F)cc2)cn2cccnc21.[O-][Cl+3]([O-])([O-])[O-] | 19.5 µM
CCCCCCCC[n+]1c(-c2ccc(SC)cc2)cn2cccnc21.[O-][Cl+3]([O-])([O-])[O-] | 9.29 µM

Please tell me: IC50 of CCCCCCCC[n+]1c(-c2ccc(S(C)(=O)=O)cc2)cn2cccnc21.[O-][Cl+3]([O-])([O-])[O-] , system Pseudomonas aeruginosa PA14?
49.6 µM
